# Test system: MCF-10A
# experiment summary: Cytotoxicity against human MCF10A cell incubated for 72 hrs by MTT assay
# Assay type: cell-based
Reported IC50 values follow for various compounds

Task item: Requested read-out: IC50. Entry: CCCCCCCCOc1ccc(C2=C(c3ccc(O)cc3)[C@H]3C[C@H](S(=O)(=O)N(CC(F)(F)F)c4ccc(OC)cc4)[C@@H]2O3)cc1 (relative stereo)
Reply: > 100 µM

Task item: Return reported IC50; argument: CCCCCOc1ccc(C2=C(c3ccc(O)cc3)[C@H]3O[C@@H]2C[C@@H]3S(=O)(=O)N(CC(F)(F)F)c2ccc(OC)cc2)cc1 (relative stereo)
Reply: > 100 µM

Task item: Quick check: IC50 of CCCCCCCCCCOc1ccc(C2=C(c3ccc(O)cc3)[C@H]3O[C@@H]2C[C@@H]3S(=O)(=O)N(CC(F)(F)F)c2ccc(OC)cc2)cc1 (relative stereo) ?
Reply: > 100 µM

---

# Test system: MCF-10A
# experiment summary: Cytotoxicity against human MCF10A cell incubated for 72 hrs by MTT assay
# Format: cell-based
The threshold is 50 µM. Values of IC50 beneath it are tagged Fulfilled; values meeting or exceeding it are tagged Not fulfilled.

Sample answers from the record:
compound: CCCCCCCCCCCCOc1ccc(C2=C(c3ccc(O)cc3)[C@H]3C[C@H](S(=O)(=O)N(CC(F)(F)F)c4ccc(OC)cc4)[C@@H]2O3)cc1 (relative stereo)
measurement target: MCF-10A
assigned label: Not fulfilled
//
compound: CCCCCCCCCCOc1ccc(C2=C(c3ccc(O)cc3)[C@H]3O[C@@H]2C[C@@H]3S(=O)(=O)N(CC(F)(F)F)c2ccc(Cl)cc2)cc1 (relative stereo)
measurement target: MCF-10A
assigned label: Not fulfilled
//
compound: CCCCCCCCCCOc1ccc(C2=C(c3ccc(O)cc3)[C@H]3C[C@H](S(=O)(=O)N(CC(F)(F)F)c4ccc(Cl)cc4)[C@@H]2O3)cc1 (relative stereo)
measurement target: MCF-10A
assigned label: Not fulfilled

Task item: Confirm or reject: IC50 of CCCCCCCCCCCCOc1ccc(C2=C(c3ccc(O)cc3)[C@H]3O[C@@H]2C[C@@H]3S(=O)(=O)N(CC(F)(F)F)c2ccc(OC)cc2)cc1 (relative stereo) lies strictly below 50 µM
Reply: Not fulfilled

Task item: IC50 strictly < 50 µM for this compound? CCCCCCOc1ccc(C2=C(c3ccc(O)cc3)[C@H]3O[C@@H]2C[C@@H]3S(=O)(=O)N(CC(F)(F)F)c2ccc(Cl)cc2)cc1 (relative stereo)
Reply: Fulfilled

Task item: Given COc1ccc(N(CC(F)(F)F)S(=O)(=O)[C@H]2C[C@H]3O[C@@H]2C(c2ccc(O)cc2)=C3c2ccc(O)cc2)cc1 (relative stereo) , is recorded IC50 strictly lower than 50 µM?
Reply: Fulfilled

Task item: Does the reported IC50 of CCCCCCOc1ccc(C2=C(c3ccc(O)cc3)[C@H]3C[C@H](S(=O)(=O)N(CC)c4ccccc4)[C@@H]2O3)cc1 (relative stereo) stay below 50 µM?
Reply: Not fulfilled

Task item: Consider the compound CCCCCCOc1ccc(N(CC(F)(F)F)S(=O)(=O)[C@H]2C[C@H]3O[C@@H]2C(c2ccc(O)cc2)=C3c2ccc(O)cc2)cc1 (relative stereo) . Is its IC50 strictly less than 50 µM?
Reply: Fulfilled

Task item: Lab note: confirm whether the reported IC50 for this compound is below 50 µM, equality not counting. compound: CCCCOc1ccc(C2=C(c3ccc(O)cc3)[C@H]3O[C@@H]2C[C@@H]3S(=O)(=O)N(CC(F)(F)F)c2ccc(Cl)cc2)cc1 (relative stereo)
Reply: Fulfilled

Task item: Find out if reported IC50 for CCCCCCCCCCOc1ccc(C2=C(c3ccc(O)cc3)[C@H]3C[C@H](S(=O)(=O)N(CC(F)(F)F)c4ccc(OC)cc4)[C@@H]2O3)cc1 (relative stereo) is less than 50 µM
Reply: Not fulfilled

Task item: # strict comparison: is reported IC50 < 50 µM? input = CCCCCCCCOc1ccc(C2=C(c3ccc(O)cc3)[C@H]3C[C@H](S(=O)(=O)N(CC(F)(F)F)c4ccc(Cl)cc4)[C@@H]2O3)cc1 (relative stereo)
Reply: Not fulfilled

Task item: Decide: IC50 of CCCCCCOc1ccc(C2=C(c3ccc(O)cc3)[C@H]3O[C@@H]2C[C@@H]3S(=O)(=O)N(CC)c2ccccc2)cc1 (relative stereo) strictly below 50 µM?
Reply: Fulfilled

Task item: A record lists CCCCCCCCOc1ccc(C2=C(c3ccc(O)cc3)[C@H]3O[C@@H]2C[C@@H]3S(=O)(=O)N(CC(F)(F)F)c2ccc(OC)cc2)cc1 (relative stereo) . Is its IC50 below 50 µM?
Reply: Fulfilled

Task item: Threshold test, IC50 < 50 µM: CCCCOc1ccc(C2=C(c3ccc(O)cc3)[C@H]3O[C@@H]2C[C@@H]3S(=O)(=O)N(CC(F)(F)F)c2ccc(OC)cc2)cc1 (relative stereo)
Reply: Not fulfilled

Task item: Please let me know if CCCCCCOc1ccc(C2=C(c3ccc(O)cc3)[C@H]3C[C@H](S(=O)(=O)N(CC(F)(F)F)c4ccc(Cl)cc4)[C@@H]2O3)cc1 (relative stereo) shows IC50 below 50 µM.
Reply: Not fulfilled

Task item: Is IC50 of CCCCCOc1ccc(C2=C(c3ccc(O)cc3)[C@H]3C[C@H](S(=O)(=O)N(CC(F)(F)F)c4ccc(OC)cc4)[C@@H]2O3)cc1 (relative stereo) strictly below 50 µM?
Reply: Not fulfilled

// provenance: ChEMBL document CHEMBL4359894
